Field: %Inh. Provide a value for each of the compounds that follow.
# System: ABL1-nonphosphorylated
# test_conditions: concentration: 1 μM, replicates: in singlicate; n = 1;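 further: KINOMEscan kinase panel screen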
Number only, in %; omit the unit.

Inquiry: Need %Inh of COc1cccc(NC(=O)Nc2ccc(C)c(-c3ccc(C(=O)Nc4ccncc4)cc3)c2)c1 , thanks.
Reply text: 4

Inquiry: Need %Inh of COC(=O)C(NC(=O)NC1CCN(c2ccnc(Nc3ccc(F)cc3)n2)C1)c1ccccc1 (stereo not drawn) , thanks.
Reply text: 0

Inquiry: Need %Inh of CN1c2ccc(-c3ccc(C(N)=O)cc3)cc2-c2[nH]ncc2S1(=O)=O , thanks.
Reply text: 36

Inquiry: Need %Inh of Cn1cncc1C(=O)NC1CCN(c2ccnc(Nc3ccc(F)cc3)n2)C1 (stereo not drawn) , thanks.
Reply text: 0

Inquiry: Need %Inh of CNc1cc(-c2ccc3c(N)n[nH]c3c2)nc(N)n1 , thanks.
Reply text: 0

Inquiry: Need %Inh of CS(=O)(=O)CCNCc1nc(-c2ccc3ncnc(Nc4ccc(OCc5ccccc5)c(Cl)c4)c3c2)cs1.Cl , thanks.
Reply text: 0

Inquiry: Need %Inh of COc1ccc2cc(-c3nc(-c4ccccc4C(C)C)[nH]c3-c3ccncc3)ccc2c1 , thanks.
Reply text: 0

Inquiry: Need %Inh of CC(C)c1ccc(O)cc1Nc1ccnc2ccc(C(F)(F)F)cc12 , thanks.
Reply text: 0

Inquiry: Need %Inh of Nc1nccc(-c2c(-c3ccc(F)cc3)ncn2C2CCN(Cc3ccccc3)CC2)n1 , thanks.
Reply text: 0

Inquiry: Need %Inh of Cc1c(Cn2c3ccccc3n3c(=O)cc(N4CCOCC4)nc23)cccc1C(F)(F)F , thanks.
Reply text: 0

Inquiry: Need %Inh of COc1ccc(-c2coc3ccc(-c4nnc(C)o4)cc23)cc1 , thanks.
Reply text: 32

Inquiry: Need %Inh of COc1cccc(CNC(=O)NC2CCN(c3ccnc(Nc4ccc(F)cc4)n3)C2)c1 (stereo not drawn) , thanks.
Reply text: 0

Inquiry: Need %Inh of Cc1cccc2c(-c3ccncn3)c(-c3ccc(F)cc3)nn12 , thanks.
Reply text: 0

Inquiry: Need %Inh of CS(=O)(=O)CCNCc1nc(-c2ccc3ncnc(Nc4ccc5c(cnn5Cc5ccccc5)c4)c3c2)cs1.Cl.Cl , thanks.
Reply text: 68

Inquiry: Need %Inh of COc1ccc(Nc2nccc(N3CCC(NC(=O)C(C)c4ccc(Cl)cc4)CC3)n2)cc1 (stereo not drawn) , thanks.
Reply text: 4

Inquiry: Need %Inh of Cc1nccc(-c2c(-c3ccc(F)cc3)ncn2CCCN2CCOCC2)n1.Cl , thanks.
Reply text: 26

Inquiry: Need %Inh of CCCCc1nn2ncccc2c1-c1ccnc(NC2CC2)n1 , thanks.
Reply text: 0

Inquiry: Need %Inh of COc1ccc(CSc2nnc(-c3ccc4c(c3)CCO4)o2)cc1 , thanks.
Reply text: 28

Inquiry: Need %Inh of Cc1ccc(NC(=O)Nc2ccc(Cl)c(C(F)(F)F)c2)cc1-c1ccc(C(=O)Nc2ccncc2)cc1 , thanks.
Reply text: 1

Inquiry: Need %Inh of CCn1c(-c2ccccc2)nc2cnccc21 , thanks.
Reply text: 0

Inquiry: Need %Inh of O=C(Nc1n[nH]c2nc(-c3ccco3)c(Br)cc12)C1CCN(Cc2ccccc2)C1.O=C(O)[C@H](O)[C@@H](O)C(=O)O (stereo not drawn) , thanks.
Reply text: 33

---

# Tested on: HPK1
# test_conditions: concentration: 1 μM, replicates: in singlicate; n = 1
Field: %Inh. Provide a value for each of the molecules that follow.
Number only, in %; omit the unit.

Inquiry: Need %Inh of COc1cccc(CNC(=O)NC2CCN(c3ccnc(Nc4ccc(F)cc4)n3)C2)c1 (stereo not shown) [GSK1379723] , thanks.
Reply text: 40

Inquiry: Need %Inh of CC(C)c1cc(-c2ccc3c(N)n[nH]c3c2)nc(N)n1 [GSK2250882] , thanks.
Reply text: 45

Inquiry: Need %Inh of Cc1cccc2c(-c3ccncn3)c(-c3ccc(F)cc3)nn12 [GW515532] , thanks.
Reply text: 3

Inquiry: Need %Inh of COC(=O)c1cccc(NC(=O)NC2CCN(c3ccnc(Nc4ccc(F)cc4)n3)C2)c1 (stereo not shown) [GSK1379725] , thanks.
Reply text: 51

---

# Tested on: CAMK2G
# test_conditions: concentration: 1 μM, replicates: in singlicate; n = 1
Field: %Inh. Provide a value for each of the compounds that follow.
Number only, in %; omit the unit.

Inquiry: Need %Inh of CC(=O)c1c(C)c2cnc(Nc3ccn(C)n3)nc2n(C2CCCC2)c1=O , thanks.
Reply text: 9

Inquiry: Need %Inh of Fc1ccc(-c2nn3cccc(F)c3c2-c2ccncc2)cc1 , thanks.
Reply text: 14

Inquiry: Need %Inh of CCCCc1nn2ncccc2c1-c1ccnc(NC2CC2)n1 , thanks.
Reply text: 7

Inquiry: Need %Inh of CN1c2ccc(-c3ccc(C(N)=O)cc3)cc2-c2[nH]ncc2S1(=O)=O , thanks.
Reply text: 2

---

Field: %Inh. Provide a value for each of the molecules that follow.
# Tested on: SGK2
# test_conditions: concentration: 1 μM, replicates: in singlicate; n = 1
Number only, in %; omit the unit.

Inquiry: Need %Inh of CNC(=O)c1ccc(C)c(-n2c(C)cc(OCc3ccc(F)cc3F)c(Br)c2=O)c1 , thanks.
Reply text: 0

Inquiry: Need %Inh of COc1cccc(CNC(=O)NC2CCN(c3ccnc(Nc4ccc(F)cc4)n3)C2)c1 (stereo not shown) , thanks.
Reply text: 8

Inquiry: Need %Inh of COC(=O)C(Cc1ccccc1)NC(=O)NC1CCN(c2ccnc(Nc3ccc(F)cc3)n2)C1 (stereo not shown) , thanks.
Reply text: 0

Inquiry: Need %Inh of Cc1ccc(NC(=O)Nc2ccccc2)cc1-c1ccc(C(=O)Nc2ccncc2)cc1 , thanks.
Reply text: 0

Inquiry: Need %Inh of Cc1cnc(N)c(/C=C/c2cncc(C(=O)NCCc3ccc(Cl)cc3Cl)c2)c1.Cl , thanks.
Reply text: 0

Inquiry: Need %Inh of COC(=O)C(NC(=O)NC1CCN(c2ccnc(Nc3ccc(F)cc3)n2)C1)c1ccccc1 (stereo not shown) , thanks.
Reply text: 8

Inquiry: Need %Inh of CS(=O)(=O)CCNCc1nc(-c2ccc3ncnc(Nc4ccc5c(cnn5Cc5ccccc5)c4)c3c2)cs1.Cl.Cl , thanks.
Reply text: 7

Inquiry: Need %Inh of O=C(Nc1n[nH]c2cc(-c3ccsc3)ccc12)C1CC1 , thanks.
Reply text: 4

Inquiry: Need %Inh of CSc1ccc(-c2nc3n(c2-c2ccncc2)CCC3)cc1 , thanks.
Reply text: 7

Inquiry: Need %Inh of CC(=O)c1c(C)c2cnc(Nc3ccn(C)n3)nc2n(C2CCCC2)c1=O , thanks.
Reply text: 0

---

Field: %Inh. Provide a value for each of the compounds that follow.
# System: EGFR
# test_conditions: concentration: 1 μM, replicates: in singlicate; n = 1
Number only, in %; omit the unit.

Inquiry: Need %Inh of Nc1ncnc2occ(-c3ccc4c(c3)CCN4C(=O)Cc3cc(F)ccc3F)c12 [GSK2645446] , thanks.
Reply text: 18

Inquiry: Need %Inh of Fc1ccc(-c2nc3n(c2-c2ccncc2)CCS3)cc1 [GI98581] , thanks.
Reply text: 32

Inquiry: Need %Inh of COc1nccc(-c2c(-c3ccc(F)cc3)ncn2CCCN2CCOCC2)n1 [SB-282852] , thanks.
Reply text: 8

Inquiry: Need %Inh of COc1ccc(Nc2nccc(-c3ccc(NC(=O)c4cc5cc(F)ccc5[nH]4)cc3)n2)cc1 [GSK1229496] , thanks.
Reply text: 14

Inquiry: Need %Inh of COc1cccc(C2=C(Nc3cc(Cl)c(O)c(Cl)c3)C(=O)NC2=O)c1 [SB-390767] , thanks.
Reply text: 0

Inquiry: Need %Inh of COc1ccc(Nc2nccc(N3CCC(NC(=O)C(C)c4ccc(Cl)cc4)C3)n2)cc1 (stereo not drawn) [GSK1379735] , thanks.
Reply text: 14

Inquiry: Need %Inh of Cc1ccc(-c2nc(Nc3ccncc3)c3ccccc3n2)s1 [GSK189015] , thanks.
Reply text: 25

Inquiry: Need %Inh of Cc1c(Cn2c(C)c(C)n3c(=O)cc(N4CCOCC4)nc23)cccc1C(F)(F)F [GSK2328680] , thanks.
Reply text: 11

Inquiry: Need %Inh of Cl.Cl.Cl.N#Cc1ccc(CCNc2nccc(-c3cccc(CN4CCNCC4)c3)n2)cc1 [GSK2137462] , thanks.
Reply text: 11

Inquiry: Need %Inh of COC(=O)c1cccc(NC(=O)NC2CCN(c3ccnc(Nc4ccc(OC)cc4)n3)C2)c1 (stereo not drawn) [GSK1379746] , thanks.
Reply text: 31

Inquiry: Need %Inh of Cc1ccc(NC(=O)Nc2ccccc2)cc1-c1ccc(C(=O)Nc2ccncc2)cc1 [GSK1398471] , thanks.
Reply text: 10

Inquiry: Need %Inh of CC[C@@H]1CO[C@H](C(=O)Nc2ccccc2)CN1c1cc(-c2ccc3c(N)n[nH]c3c2)nc(NC)n1 [GSK2376236] , thanks.
Reply text: 71

Inquiry: Need %Inh of Cn1cncc1C(=O)NC1CCN(c2ccnc(Nc3ccc(F)cc3)n2)C1 (stereo not drawn) [GSK1379717] , thanks.
Reply text: 15

Inquiry: Need %Inh of CCCCc1nn2ncccc2c1-c1ccnc(NC2CC2)n1 [GW684374] , thanks.
Reply text: 26

Inquiry: Need %Inh of O=C(Nc1n[nH]c2nc(-c3cccs3)c(Br)cc12)C1CCCC1 [SB-743341] , thanks.
Reply text: 1

Inquiry: Need %Inh of CN1c2ccc(-c3ccc(C(N)=O)cc3)cc2-c2[nH]ncc2S1(=O)=O , thanks.
Reply text: 0

Inquiry: Need %Inh of CC(=O)c1c(C)c2cnc(Nc3ccc(N4CCNCC4)cn3)nc2n(C2CCCC2)c1=O , thanks.
Reply text: 4

Inquiry: Need %Inh of COc1ccc(CSc2nnc(-c3ccc4ncsc4c3)o2)cc1C(F)(F)F , thanks.
Reply text: 7

Inquiry: Need %Inh of Cc1nccc(-c2c(-c3ccc(F)cc3)ncn2CCCN2CCOCC2)n1.Cl [SB-282975] , thanks.
Reply text: 17

Inquiry: Need %Inh of CCn1c(-c2ccccc2)nc2cnccc21 [SB-733416] , thanks.
Reply text: 37

Inquiry: Need %Inh of FC(F)(F)c1ccccc1-c1cc(-c2c[nH]nc2-c2ccccn2)ccn1 [GW679396] , thanks.
Reply text: 0

Inquiry: Need %Inh of COC(=O)C(Cc1ccccc1)NC(=O)NC1CCN(c2ccnc(Nc3ccc(F)cc3)n2)C1 (stereo not drawn) [GSK1379714] , thanks.
Reply text: 31

Inquiry: Need %Inh of CC(C)c1cc(-c2ccc3c(N)n[nH]c3c2)nc(N)n1 [GSK2250882] , thanks.
Reply text: 17

Inquiry: Need %Inh of Cc1ccccc1Cn1ccn2c(=O)cc(N3CCOCC3)nc12 [GSK2269905] , thanks.
Reply text: 15
